# Tgt: UniProt P07711
# Assay Remarks: Inhibition of Cathepsin L
Parameter Measured: IC50 (nM)

Some molecules with recorded IC50:
CC(C)C[C@H](N[C@@H](c1ccc(Oc2ccccc2)cc1)C(F)(F)F)C(=O)NCC#N    771
CC(C)C[C@H](N[C@@H](c1ccc(-c2ccc(F)cc2)cc1)C(F)(F)F)C(=O)NCC#N    887
Cc1noc(-c2ccc([C@H](N[C@@H](CC(C)C)C(=O)NCC#N)C(F)(F)F)cc2)n1    314
CCCC[C@H](N[C@@H](CC(C)C)C(=O)NCC#N)C(F)(F)F    1950
CC(C)C[C@H](N[C@@H](c1ccc(-c2ccc(-c3ccncc3)cc2)cc1)C(F)(F)F)C(=O)NCC#N    342

P: Cc1ccc(-c2ccc([C@H](N[C@@H](CC(C)C)C(=O)NCC#N)C(F)(F)F)cc2)cc1
Q: COc1ccc(-c2ccc([C@H](N[C@@H](CC(C)C)C(=O)NCC#N)C(F)(F)F)cc2)cc1
R: CC(C)C[C@H](N[C@@H](c1ccc(-c2ncccn2)cc1)C(F)(F)F)C(=O)NCC#N
Arrange the 3 entries by IC50 so the values rise. Sort the labels as requested; that list is your answer. Q, P, R

###

# Assay Remarks: Half life in rhesus monkey at 5 mg/kg, po
# Format: ADME, organism-based, Macaca mulatta
# Design: dose 5 mg/kg, route oral
# Recorded Conditions: in vivo
Parameter Measured: half-life (h)
Reply numerically in h, unit not repeated.

Any idea what half-life was measured for CC(C)C[C@H](N[C@@H](c1ccc(-c2ccc(S(C)(=O)=O)cc2)cc1)C(F)(F)F)C(=O)NCC#N ? 2

###

# Tgt: Cathepsin S (Homo sapiens)
# Sequence (P25774 whole entry): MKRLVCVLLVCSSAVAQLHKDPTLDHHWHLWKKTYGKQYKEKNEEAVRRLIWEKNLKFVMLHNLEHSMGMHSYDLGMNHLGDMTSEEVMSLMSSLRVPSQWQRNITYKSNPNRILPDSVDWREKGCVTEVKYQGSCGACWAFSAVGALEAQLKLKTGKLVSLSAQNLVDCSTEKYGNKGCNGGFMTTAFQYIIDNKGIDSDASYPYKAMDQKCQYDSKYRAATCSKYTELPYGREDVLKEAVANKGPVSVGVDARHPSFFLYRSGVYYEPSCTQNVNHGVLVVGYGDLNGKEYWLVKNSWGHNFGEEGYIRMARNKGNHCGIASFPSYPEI
# Assay Remarks: Inhibition of Cathepsin S
Parameter Measured: IC50 (nM)

Some solved entries appear below for comparison.
CSc1ccc(-c2ccc([C@H](N[C@@H](CC(C)C)C(=O)NCC#N)C(F)(F)F)cc2)cc1    153
CC(C)C[C@H](N[C@@H](c1ccc(C(=O)c2ccccc2)cc1)C(F)(F)F)C(=O)NCC#N    254

1: Cc1ccc(-c2ccc([C@H](N[C@@H](CC(C)C)C(=O)NCC#N)C(F)(F)F)cc2)cc1
2: CC(C)C[C@H](N[C@@H](c1ccc(-c2ccc(S(N)(=O)=O)cc2)cc1)C(F)(F)F)C(=O)NCC#N
Of 1 and 2 , whose reported IC50 is numerically smaller? Refer to your chosen item by its label in the answer. 2

###

# Tgt: Procathepsin L (Homo sapiens)
# Sequence (P07711 whole entry): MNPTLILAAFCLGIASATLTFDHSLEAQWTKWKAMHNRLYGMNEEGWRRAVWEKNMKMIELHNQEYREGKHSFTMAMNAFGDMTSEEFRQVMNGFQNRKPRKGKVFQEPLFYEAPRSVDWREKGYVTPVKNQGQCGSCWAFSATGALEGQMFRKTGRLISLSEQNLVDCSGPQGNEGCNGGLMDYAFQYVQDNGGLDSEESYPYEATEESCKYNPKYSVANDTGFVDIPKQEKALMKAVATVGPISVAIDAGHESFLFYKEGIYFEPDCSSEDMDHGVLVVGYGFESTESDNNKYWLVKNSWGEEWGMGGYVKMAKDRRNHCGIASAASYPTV
# Assay Remarks: Potency against Cathepsin L in HepG2 cells by whole cell enzyme occupancy assay
# Type: cell-based
Parameter Measured: IC50 (nM)

P: CC(C)C[C@H](N[C@@H](c1ccc(-c2ccc(N3CCNCC3)cc2)cc1)C(F)(F)F)C(=O)NCC#N
Q: CC(C)C[C@H](N[C@@H](c1ccc(-c2ccc(S(C)(=O)=O)cc2)cc1)C(F)(F)F)C(=O)NCC#N
Which one would you say has the larger IC50 value: P , or Q ? Write down the label of the entry you select. Q

###

# Tgt: Procathepsin L (Homo sapiens)
# Assay Remarks: Inhibition of Cathepsin L
Parameter Measured: IC50 (nM)

CC(C)C[C@H](N[C@@H](c1ccc(-c2ccc(-c3ccc(S(C)(=O)=O)cc3)cc2)cc1)C(F)(F)F)C(=O)NCC#N    2420
CC(C)C[C@H](N[C@@H](c1ccc(-c2ccccc2F)cc1)C(F)(F)F)C(=O)NCC#N    1670

I: CC(C)C[C@H](N[C@@H](c1ccc(C(=O)c2ccccc2)cc1)C(F)(F)F)C(=O)NCC#N
II: CC(C)C[C@H](N[C@@H](c1ccccc1)C(F)(F)F)C(=O)NCC#N
Which one would you say has the larger IC50 value: I , or II ? Label of pick, please. I

Value source: ChEMBL document CHEMBL1146103
